% dose/organ by entry:
# PROTOCOL TEXT: Biodistribution in ICR mice after an iv injection
# Assay type: in vivo
# MEASUREMENT SETUP: Muscle, 2 hr after iv injection
Hi! Could you send only the number? It should be in % dose/organ, unit omitted.

GET /values?readout=% dose/organ&item= CNc1ccc(-c2ccc3nc(OCCOCCOCC[18F])ccc3c2)cc1 [[^18F]34a]
9.55

---

# PROTOCOL TEXT: Biodistribution in ICR mice after an iv injection
# Format: in vivo
# MEASUREMENT SETUP: Blood, 1 hr after iv injection
# Description: Biodistribution in ICR Mice After an iv Injection of [^18F][4-(6-{2-[2-(2-Fluoro-ethoxy)-ethoxy]-ethoxy}-naphthalen-2-yl)-phenyl]-methyl-amine in 1% EtOH/0.1% BSA in Water (% dose/organ, avg of 3 mice±SD) (% dose/g, avg of 3 mice±SD) Biodistribution in ICR Mice After an iv Injection of [^18F]19a in 3% EtOH/0.1% BSA in Water Biodistribution in ICR Mice After an iv Injection of [^18F]34a in 5% EtOH/0.1% BSA in Water […]
% dose/organ by entry:
Hi! Could you send only the number? It should be in % dose/organ, unit omitted.

CN(C)c1ccc(-c2ccc3nc(OCCOCCOCC[18F])ccc3c2)cc1 [[^18F]32a]: 2.40

GET /values?readout=% dose/organ&item= "CNc1ccc(-c2ccc3cc(OCCOCCOCCF)ccc3c2)cc1"
2.73

And then CNc1ccc(-c2ccc3nc(OCCOCCOCC[18F])ccc3c2)cc1 [[^18F]34a] , what is it?
2.87

And then CNc1ccc2cc(-c3ccc(OCCOCCOCC[18F])cc3)ccc2c1 [[^18F]19a] , what is it?
4.94

---

# PROTOCOL TEXT: Biodistribution in ICR mice after an iv injection
# Type: in vivo
# MEASUREMENT SETUP: Skin, 2 hr after iv injection
RECORDED ENDPOINT: % dose/g (% dose/g)
Hi! Could you send only the number? It should be in % dose/g, unit omitted.

CNc1ccc(-c2ccc3nc(OCCOCCOCC[18F])ccc3c2)cc1 [[^18F]34a]: 1.12

GET /values?readout=% dose/g&item= CNc1ccc2cc(-c3ccc(OCCOCCOCC[18F])cc3)ccc2c1 [[^18F]19a]
0.77

And then CN(C)c1ccc(-c2ccc3nc(OCCOCCOCC[18F])ccc3c2)cc1 [[^18F]32a] , what is it?
0.82

And then "CNc1ccc(-c2ccc3cc(OCCOCCOCCF)ccc3c2)cc1" , what is it?
1.32

---

# PROTOCOL TEXT: Biodistribution in ICR mice after an iv injection
# Assay type: in vivo
# MEASUREMENT SETUP: Blood, 30 min after iv injection
# Excerpt: Biodistribution in ICR Mice After an iv Injection of [^18F][4-(6-{2-[2-(2-Fluoro-ethoxy)-ethoxy]-ethoxy}-naphthalen-2-yl)-phenyl]-methyl-amine in 1% EtOH/0.1% BSA in Water (% dose/organ, avg of 3 mice±SD) (% dose/g, avg of 3 mice±SD) Biodistribution in ICR Mice After an iv Injection of [^18F]19a in 3% EtOH/0.1% BSA in Water Biodistribution in ICR Mice After an iv Injection of [^18F]34a in 5% EtOH/0.1% BSA in Water […]
RECORDED ENDPOINT: % dose/organ (% dose/organ)
Hi! Could you send only the number? It should be in % dose/organ, unit omitted.

CNc1ccc(-c2ccc3cc(OCCOCCOCCF)ccc3c2)cc1: 2.99
CN(C)c1ccc(-c2ccc3nc(OCCOCCOCC[18F])ccc3c2)cc1 [[^18F]32a]: 1.80
CNc1ccc(-c2ccc3nc(OCCOCCOCC[18F])ccc3c2)cc1 [[^18F]34a]: 2.51

GET /values?readout=% dose/organ&item= CNc1ccc2cc(-c3ccc(OCCOCCOCC[18F])cc3)ccc2c1 [[^18F]19a]
6.94

---

# PROTOCOL TEXT: Biodistribution in ICR mice after an iv injection
# Format: in vivo
# MEASUREMENT SETUP: Blood, 30 min after iv injection
RECORDED ENDPOINT: % dose/g (% dose/g)
Hi! Could you send only the number? It should be in % dose/g, unit omitted.

GET /values?readout=% dose/g&item= CNc1ccc(-c2ccc3nc(OCCOCCOCC[18F])ccc3c2)cc1 [[^18F]34a]
1.49

And then CN(C)c1ccc(-c2ccc3nc(OCCOCCOCC[18F])ccc3c2)cc1 [[^18F]32a] , what is it?
0.99

And then "CNc1ccc(-c2ccc3cc(OCCOCCOCCF)ccc3c2)cc1" , what is it?
1.72

And then CNc1ccc2cc(-c3ccc(OCCOCCOCC[18F])cc3)ccc2c1 [[^18F]19a] , what is it?
4.15

---

# PROTOCOL TEXT: Biodistribution in ICR mice after an iv injection
# Assay type: in vivo
# MEASUREMENT SETUP: Kidney, 2 hr after iv injection
RECORDED ENDPOINT: % dose/organ (% dose/organ)
Hi! Could you send only the number? It should be in % dose/organ, unit omitted.

CN(C)c1ccc(-c2ccc3nc(OCCOCCOCC[18F])ccc3c2)cc1 [[^18F]32a]: 0.73
CNc1ccc(-c2ccc3nc(OCCOCCOCC[18F])ccc3c2)cc1 [[^18F]34a]: 1.00
CNc1ccc(-c2ccc3cc(OCCOCCOCCF)ccc3c2)cc1: 0.88

Alright, here's another compound for you.
GET /values?readout=% dose/organ&item= CNc1ccc2cc(-c3ccc(OCCOCCOCC[18F])cc3)ccc2c1 [[^18F]19a]
0.88

---

# PROTOCOL TEXT: Biodistribution in ICR mice after an iv injection
# Assay type: in vivo
# MEASUREMENT SETUP: Skin, 2 min after iv injection
RECORDED ENDPOINT: % dose/g (% dose/g)
Hi! Could you send only the number? It should be in % dose/g, unit omitted.

CN(C)c1ccc(-c2ccc3nc(OCCOCCOCC[18F])ccc3c2)cc1 [[^18F]32a]: 0.42
CNc1ccc(-c2ccc3cc(OCCOCCOCCF)ccc3c2)cc1: 1.01
CNc1ccc2cc(-c3ccc(OCCOCCOCC[18F])cc3)ccc2c1 [[^18F]19a]: 0.70

GET /values?readout=% dose/g&item= CNc1ccc(-c2ccc3nc(OCCOCCOCC[18F])ccc3c2)cc1 [[^18F]34a]
0.58

---

# PROTOCOL TEXT: Biodistribution in ICR mice after an iv injection
# Format: in vivo
# MEASUREMENT SETUP: Brain, 2 min after iv injection
% dose/g by entry:
Hi! Could you send only the number? It should be in % dose/g, unit omitted.

Reference set (3 entries):
CNc1ccc(-c2ccc3nc(OCCOCCOCC[18F])ccc3c2)cc1 [[^18F]34a]: 10.2
CNc1ccc2cc(-c3ccc(OCCOCCOCC[18F])cc3)ccc2c1 [[^18F]19a]: 5.55
CNc1ccc(-c2ccc3cc(OCCOCCOCCF)ccc3c2)cc1: 7.26

GET /values?readout=% dose/g&item= CN(C)c1ccc(-c2ccc3nc(OCCOCCOCC[18F])ccc3c2)cc1 [[^18F]32a]
7.76

---

% dose/g by entry:
# PROTOCOL TEXT: Biodistribution in ICR mice after an iv injection
# Assay type: in vivo
# MEASUREMENT SETUP: Heart, 1 hr after iv injection
Hi! Could you send only the number? It should be in % dose/g, unit omitted.

Reference set (3 entries):
CN(C)c1ccc(-c2ccc3nc(OCCOCCOCC[18F])ccc3c2)cc1 [[^18F]32a]: 2.07
CNc1ccc(-c2ccc3nc(OCCOCCOCC[18F])ccc3c2)cc1 [[^18F]34a]: 2.20
CNc1ccc(-c2ccc3cc(OCCOCCOCCF)ccc3c2)cc1: 1.46

Alright, here's another molecule for you.
GET /values?readout=% dose/g&item= CNc1ccc2cc(-c3ccc(OCCOCCOCC[18F])cc3)ccc2c1 [[^18F]19a]
1.69

---

# PROTOCOL TEXT: Biodistribution in ICR mice after an iv injection
# Format: in vivo
# MEASUREMENT SETUP: Skin, 30 min after iv injection
% dose/g by entry:
Hi! Could you send only the number? It should be in % dose/g, unit omitted.

Reference set (2 entries):
CNc1ccc(-c2ccc3nc(OCCOCCOCC[18F])ccc3c2)cc1 [[^18F]34a]: 1.03
CN(C)c1ccc(-c2ccc3nc(OCCOCCOCC[18F])ccc3c2)cc1 [[^18F]32a]: 0.98

GET /values?readout=% dose/g&item= CNc1ccc2cc(-c3ccc(OCCOCCOCC[18F])cc3)ccc2c1 [[^18F]19a]
1.37

And then "CNc1ccc(-c2ccc3cc(OCCOCCOCCF)ccc3c2)cc1" , what is it?
1.90
